{"Line notation": "Cn1c(C(=O)O)cc(=O)c2cc(O)c(=O)c(Br)cc21", "melting point": "> 250 °C"}
{"Line notation": "Cc1nc(NCc2ccccn2)[nH]c(=O)c1CCO", "melting point": "185 °C"}
{"Line notation": "Cc1cc2c(s1)Oc1cccc(C)c1N=C2N1CCN(C)CC1", "melting point": "114 to 117 °C"}
{"Line notation": "CCC(C)(C)Nc1c(N(Cc2ccc(Cl)cc2Cl)C(C)=O)c(=O)c1=O", "melting point": "114 to 116 °C"}
{"Line notation": "N#Cc1c(N2CCN(C(=O)c3cccs3)CC2)c2cccnc2n(Cc2cccc(F)c2)c1=O", "melting point": "231 °C"}
{"Line notation": "Nc1nc(-c2cccc3ccc(Br)cc23)co1", "melting point": "189 to 190 °C"}
{"Line notation": "N#Cc1cc2c(Nc3cccc(Cl)c3)ncnc2[nH]1", "melting point": "284 to 287 °C"}
{"Line notation": "O=C1c2ccccc2C(Cc2ccnc(F)c2)(Cc2ccnc(F)c2)c2cc(O)ccc21", "melting point": "219 to 221 °C"}
{"Line notation": "CCN(CC)CCCNC(=S)N(CCS(=O)(=O)c1ccccc1)C(C)C", "melting point": "120 to 121 °C"}
{"Line notation": "O=C(c1ccc(OCCN2CCCC2)cc1)c1c(-c2ccc(O)cc2)sc2cc(O)ccc12", "melting point": "146 to 147 °C"}
{"Line notation": "CSc1ccc(-c2nc3[nH]nc(N)c3c(=O)n2-c2ccc(C)cc2)cc1", "melting point": "> 285 °C"}
{"Line notation": "C=CCc1cc(OC)c(OC)cc1Cc1cnc(N)nc1N", "melting point": "170 to 171 °C"}
{"Line notation": "C#CCN1C(=O)COc2cc(F)c(N(C(=O)CCl)C(=O)C3=C(C(=O)OC)CCCC3)cc21", "melting point": "156 to 158 °C"}
{"Line notation": "O=C1C(O)=C(c2ccc3ccccc3c2)C(=O)C(O)=C1c1ccc(Cl)cc1", "melting point": "302 to 303 °C"}
{"Line notation": "C#Cc1ccc(=O)n(C(C)C)n1", "melting point": "103 to 104 °C"}
{"Line notation": "O=C(O)c1c(Cc2cc3c(cc2Cl)OCO3)c(-c2ccccn2)nn1CC1CCCCC1", "melting point": "238 °C"}
{"Line notation": "c1ccc(Oc2ccc(C3(Cn4cncn4)OCCO3)cc2)cc1", "melting point": "100 to 102 °C"}
{"Line notation": "CN1CCC2(CC1)NC(=S)N(c1ccc(C#N)c(C(F)(F)F)c1)C2=N", "melting point": "> 264 °C"}
{"Line notation": "O=C(NN=CC(F)(F)C(F)(F)F)c1nc(Oc2cccc(C(F)(F)F)c2)ccc1Cl", "melting point": "130 to 131 °C"}
{"Line notation": "CCCc1c(C(=O)C(C)C)c2ccc(C(=O)OC)cc2n1Cc1ccccc1C#N", "melting point": "159 to 161 °C"}
